Target: KRAS G12S (Homo sapiens (Human), UniProt P01116+P62937, G12S)
Sequence (P01116-2 other isoform, or with tags, fused parts or gaps G12S): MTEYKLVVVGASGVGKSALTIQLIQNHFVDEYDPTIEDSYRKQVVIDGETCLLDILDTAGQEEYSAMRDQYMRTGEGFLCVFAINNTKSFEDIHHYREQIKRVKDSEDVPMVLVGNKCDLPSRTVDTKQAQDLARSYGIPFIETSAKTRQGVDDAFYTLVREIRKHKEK
Sequence (P62937 whole entry): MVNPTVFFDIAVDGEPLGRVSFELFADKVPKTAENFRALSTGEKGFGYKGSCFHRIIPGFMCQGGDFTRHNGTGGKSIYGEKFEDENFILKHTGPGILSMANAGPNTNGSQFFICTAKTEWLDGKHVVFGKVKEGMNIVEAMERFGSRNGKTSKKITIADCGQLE
Assay: Ras-Raf (BRAF RBD) disruption / FRET / MOA assay, KRAS G12S
Format: biochemical
Settings: Ras-Raf disruption/FRET/MOA assay; class symbols; read-out: KRAS G12S FRET data IC50
# reported IC50; entries follow
measured_property: IC50

molecule | recorded_measurement
CO[C@@H](C)c1ncccc1-c1c2c3cc(ccc3n1CC(F)(F)F)-c1cc(CF)cc(c1)C[C@H](NC(=O)[C@@H](COC1CN(C(=O)C#CC(C)(C)N(C)C)C1)C(C)C)C(=O)N1CCC[C@H](N1)C(=O)OCC(C)(C)C2 (atropisomer, axis not shown) | > 10 µM
CCn1c(-c2cccnc2[C@H](C)OC)c2c3cc(ccc31)-c1cccc(c1)C[C@H](NC(=O)[C@H](C(C)C)N1CO[C@]3(CCN(C(=O)C#CC(C)(C)N4CCC4)C3)C1=O)C(=O)N1CCC[C@H](N1)C(=O)OCC(C)(C)C2 (atropisomer, axis not shown) | 0.1 to 1 µM
CCn1c(-c2cccnc2[C@H](C)OC)c2c3cc(ccc31)-c1csc(n1)C[C@H](NC(=O)[C@H](C(C)C)N(C)C(=O)N1CCN(C(=O)/C=C/CN(C)C)C3(CC3)C1)C(=O)N1CCC[C@H](N1)C(=O)OCC(C)(C)C2 (atropisomer, axis not shown) | 0.1 to 1 µM
C=C(C)C(=O)N1CC2(CCN(C(=O)N(C)[C@H](C(=O)N[C@H]3Cc4nc(cs4)-c4ccc5c(c4)c(c(-c4cccnc4[C@H](C)OC)n5CC)CC(C)(C)COC(=O)[C@@H]4CCCN(N4)C3=O)C(C)C)CC2)C1 (atropisomer, axis not shown) | 0.1 to 1 µM
